Catalogue of variants with associated normalized RNA/DNA level without ligand (log10)
B1: library; a variant is named by its letters at N, in order (parent)
chain: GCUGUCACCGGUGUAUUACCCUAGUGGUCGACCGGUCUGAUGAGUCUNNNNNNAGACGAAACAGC

# Variants of: B1
# procedure_text: normalized RNA/DNA level without ligand (relative to sTRSVctl = 100) (log10 (% of sTRSVctl)); ligand: hypoxanthine (xanthine aptamer); higher = less ribozyme self-cleavage, higher mRNA level
# conditions: HEK293T, reporter: mCherry (pCS4076), ligand present: no
Answer with a number only.

Some solved cases for reference:
INSERT INTO assay_data (sequence_variant, result) VALUES
  ('GGGGUC', 1.84),
  ('AAACCU', 1.87),
  ('UUGCGA', 1.88),
  ('AAGACA', 1.68);

// query normalized RNA/DNA level without ligand (log10) value for entry "AAGCGA" 1.43

// query normalized RNA/DNA level without ligand (log10) value for entry "GUAGGC" 1.38

// query normalized RNA/DNA level without ligand (log10) value for entry "UACGUU" 1.86

Reference source: the supplement of paper PMC6757056
